ASSAY EXPLANATION: 4-methoxyaniline yield was measured from 4 fold reduced forms of compound at pH 7.4
MEASURE: Release (%)

[[record]]
compound = "COc1ccc(NC(=O)C(C)Nc2c([N+](=O)[O-])cc(C(=O)NCC(O)CO)cc2[N+](=O)[O-])cc1 (stereo not given)"
readout_value = 92

[[record]]
compound = "COc1ccc(NC(=O)C(C)Nc2c([N+](=O)[O-])cc(C(=O)NCCN(C)C)cc2[N+](=O)[O-])cc1 (stereo not given)"
readout_value = 89

[[record]]
compound = "COc1ccc(NC(=O)CNc2c([N+](=O)[O-])cc(C(=O)NCCO)cc2[N+](=O)[O-])cc1"
readout_value = 69

[[record]]
compound = "COc1ccc(NC(=O)C(C)Nc2c([N+](=O)[O-])cc(C(=O)NCCO)cc2[N+](=O)[O-])cc1 (stereo not given)"
readout_value = 77

[[record]]
compound = "COc1ccc(NC(=O)C(C)(C)Nc2c([N+](=O)[O-])cc(C(=O)NCCO)cc2[N+](=O)[O-])cc1"
readout_value = 90


---

ASSAY EXPLANATION: 4-methoxyaniline yield was measured from 8 fold reduced forms of compound at pH 7.4
Everything with Release lower than 80% is label 0; everything else, including exactly 80%, is label 1.

[[record]]
compound = "COc1ccc(NC(=O)C(C)(C)Nc2c([N+](=O)[O-])cc(C(=O)NCCO)cc2[N+](=O)[O-])cc1"
group_label = "label 1"

[[record]]
compound = "COc1ccc(NC(=O)CNc2c([N+](=O)[O-])cc(C(=O)NCCO)cc2[N+](=O)[O-])cc1"
group_label = "label 0"

[[record]]
compound = "COc1ccc(NC(=O)C(C)Nc2c([N+](=O)[O-])cc(C(=O)NCCO)cc2[N+](=O)[O-])cc1 (stereo not given)"
group_label = "label 0"

[[record]]
compound = "COc1ccc(NC(=O)C(C)Nc2c([N+](=O)[O-])cc(C(=O)NCC(O)CO)cc2[N+](=O)[O-])cc1 (stereo not given)"
group_label = "label 1"

[[record]]
compound = "COc1ccc(NC(=O)C(C)Nc2c([N+](=O)[O-])cc(C(=O)NCCN(C)C)cc2[N+](=O)[O-])cc1 (stereo not given)"
group_label = "label 1"

